- Test System: Human cytomegalovirus DNA polymerase (Human cytomegalovirus, UniProt P08546)
- Construct: made in house; host or cells: SF21 insect cells (baculovirus vector)
- Sequence (P08546 whole entry): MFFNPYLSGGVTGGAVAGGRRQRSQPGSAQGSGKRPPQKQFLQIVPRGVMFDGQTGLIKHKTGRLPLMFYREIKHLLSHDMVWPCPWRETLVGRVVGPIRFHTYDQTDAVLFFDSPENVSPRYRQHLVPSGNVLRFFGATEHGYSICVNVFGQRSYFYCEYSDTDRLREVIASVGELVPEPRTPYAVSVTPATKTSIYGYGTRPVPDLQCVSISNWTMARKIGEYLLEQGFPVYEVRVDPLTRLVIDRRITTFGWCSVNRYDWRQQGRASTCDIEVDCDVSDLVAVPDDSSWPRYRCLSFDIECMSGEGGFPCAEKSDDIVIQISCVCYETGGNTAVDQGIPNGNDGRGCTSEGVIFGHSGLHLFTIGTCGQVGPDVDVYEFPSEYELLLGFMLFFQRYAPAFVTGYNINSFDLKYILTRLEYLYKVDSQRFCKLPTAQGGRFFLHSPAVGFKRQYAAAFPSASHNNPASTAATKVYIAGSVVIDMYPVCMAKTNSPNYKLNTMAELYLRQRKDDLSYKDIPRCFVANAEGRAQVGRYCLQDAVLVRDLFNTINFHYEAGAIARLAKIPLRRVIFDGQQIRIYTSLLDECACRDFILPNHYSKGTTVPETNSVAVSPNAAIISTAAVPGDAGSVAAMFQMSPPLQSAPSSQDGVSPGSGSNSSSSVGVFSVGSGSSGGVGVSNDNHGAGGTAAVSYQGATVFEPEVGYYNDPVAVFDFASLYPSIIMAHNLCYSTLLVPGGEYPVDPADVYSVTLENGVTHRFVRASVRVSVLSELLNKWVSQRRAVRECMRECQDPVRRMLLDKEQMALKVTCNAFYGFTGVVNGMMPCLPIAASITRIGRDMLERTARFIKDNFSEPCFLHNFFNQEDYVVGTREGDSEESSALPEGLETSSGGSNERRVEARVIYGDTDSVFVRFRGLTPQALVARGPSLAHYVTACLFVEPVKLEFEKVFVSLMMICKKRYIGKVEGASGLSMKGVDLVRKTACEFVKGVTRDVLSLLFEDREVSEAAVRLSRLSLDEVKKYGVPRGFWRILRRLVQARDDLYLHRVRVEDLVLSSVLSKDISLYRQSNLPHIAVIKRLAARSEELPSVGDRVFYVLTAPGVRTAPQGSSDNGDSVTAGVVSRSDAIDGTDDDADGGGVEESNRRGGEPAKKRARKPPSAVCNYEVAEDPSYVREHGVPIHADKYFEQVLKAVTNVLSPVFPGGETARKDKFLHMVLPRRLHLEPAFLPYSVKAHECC
- Procedure Summary: CMV polymerase assay (AlphaLISA)
- Type: biochemical
- Applied Conditions: polymerase assay of Example 27; HCMV polymerase 0.2 nM; read-out: CMV^a (IC50)
Measure: pIC50
Scale for pIC50: -log10 of concentration given in mol/L; no unit attached.

{"Record Smiles": "Cn1nc(C(=O)NCc2ccc(Cl)cc2)c2ccc(N3CCn4nncc4C3)c(Br)c21", "pIC50": 7.60}
{"Record Smiles": "Cn1cc(C(=O)NCc2ccc(Cl)cc2)c2ccc(N3CCn4nncc4C3)cc21", "pIC50": 6.72}
{"Record Smiles": "Cn1nc(C(=O)NCc2ccc(Cl)cc2)c2cc(CN3CCOCC3)ncc21", "pIC50": 5.62}

Below: the item to evaluate.
Query string: Report pIC50, nothing else, for this compound: "N#Cc1c(N2CCn3nncc3C2)ccc2c(C(=O)NCc3ccc(Cl)cc3)n[nH]c12"
Result string: 7.64

* * *

Listing: pIC50 of selected compounds
- Test System: varicella zoster virus DNA polymerase (Varicella-zoster virus, UniProt P09252)
- Construct: made in house; host or cells: SF21 insect cells (baculovirus vector)
- Sequence (P09252 whole entry): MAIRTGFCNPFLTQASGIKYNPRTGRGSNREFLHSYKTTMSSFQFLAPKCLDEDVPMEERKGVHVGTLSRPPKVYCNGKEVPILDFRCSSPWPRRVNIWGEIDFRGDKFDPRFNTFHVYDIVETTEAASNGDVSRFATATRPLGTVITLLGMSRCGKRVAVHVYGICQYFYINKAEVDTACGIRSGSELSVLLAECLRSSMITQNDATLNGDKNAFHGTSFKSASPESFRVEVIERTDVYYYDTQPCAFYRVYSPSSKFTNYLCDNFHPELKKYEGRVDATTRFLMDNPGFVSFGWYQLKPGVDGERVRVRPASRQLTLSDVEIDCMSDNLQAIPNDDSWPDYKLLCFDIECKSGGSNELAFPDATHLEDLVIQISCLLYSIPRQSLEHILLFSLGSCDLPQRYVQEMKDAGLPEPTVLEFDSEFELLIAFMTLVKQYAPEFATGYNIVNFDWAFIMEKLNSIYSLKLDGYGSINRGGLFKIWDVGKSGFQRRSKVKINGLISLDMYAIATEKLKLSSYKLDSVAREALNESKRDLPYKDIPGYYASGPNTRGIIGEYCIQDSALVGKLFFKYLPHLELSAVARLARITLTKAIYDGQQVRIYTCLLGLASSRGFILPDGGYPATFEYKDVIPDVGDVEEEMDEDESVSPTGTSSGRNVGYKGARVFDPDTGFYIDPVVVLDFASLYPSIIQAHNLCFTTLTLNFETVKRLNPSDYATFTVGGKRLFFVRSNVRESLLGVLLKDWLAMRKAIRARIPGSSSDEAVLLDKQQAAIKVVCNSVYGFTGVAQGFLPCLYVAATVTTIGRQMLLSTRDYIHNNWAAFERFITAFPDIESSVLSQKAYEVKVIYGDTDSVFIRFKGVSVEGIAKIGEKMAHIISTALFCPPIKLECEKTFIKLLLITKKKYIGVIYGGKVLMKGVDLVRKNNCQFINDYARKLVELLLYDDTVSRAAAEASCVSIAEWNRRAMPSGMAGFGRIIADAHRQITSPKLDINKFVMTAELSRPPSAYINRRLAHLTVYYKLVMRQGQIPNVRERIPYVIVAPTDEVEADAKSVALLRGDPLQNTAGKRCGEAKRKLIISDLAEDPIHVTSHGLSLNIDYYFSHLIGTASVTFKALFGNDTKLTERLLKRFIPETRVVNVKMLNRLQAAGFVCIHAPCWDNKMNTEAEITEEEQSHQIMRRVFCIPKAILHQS
- Procedure Summary: VZV polymerase assay (AlphaLISA)
- Type: biochemical
- Applied Conditions: polymerase assay of Example 27; VZV polymerase 0.4 nM; read-out: VZV^a (IC50)
Scale for pIC50: -log10 of concentration given in mol/L; no unit attached.

Study these solved cases before continuing.
{"Compound": "O=C(NCc1ccc(Cl)cc1)c1n[nH]c2c(Cl)c(N3CCn4nncc4C3)ccc12", "Endpoint Value": 8.29}
{"Compound": "Cn1nc(C(=O)NCc2ccc(Br)cc2)c2cc(CN3CCOCC3)ccc21", "Endpoint Value": 6.66}
{"Compound": "Cn1nc(C(=O)NCc2ccc(Cl)cc2)c2c3c(ccc21)C(N1CCOCC1)CC3 (single isomer, unassigned) [Compound 16]", "Endpoint Value": 7.42}

Query string: Report pIC50, nothing else, for this compound: "Cn1nc(C(=O)NCc2ccc(Cl)cc2)c2cnc(N3CCn4nncc4C3)cc21"
Result string: 6.60

* * *

- Test System: varicella zoster virus DNA polymerase (Varicella-zoster virus)
- Construct: made in house; host or cells: SF21 insect cells (baculovirus vector)
- Procedure Summary: VZV polymerase assay (AlphaLISA)
- Type: biochemical
- Applied Conditions: VZV^a (IC50), polymerase assay of Example 27; VZV polymerase 0.4 nM
Measure: pIC50
Scale for pIC50: -log10 of concentration given in mol/L; no unit attached.

Study these solved cases before continuing.
{"Compound": "Cc1nnn(C)c1COc1ccc2c(C(=O)NCc3ccc(Cl)cc3)nn(C[C@@H](C)O)c2c1F", "pIC50": 8.80}
{"Compound": "Cc1c(N2CCn3nncc3C2)ccc2c(C(=O)NCc3ccc(C#N)cc3)nn(C[C@H](C)NC(=O)C(C)C)c12", "pIC50": 8.74}
{"Compound": "Cc1c(N2CCn3nncc3C2)ccc2c(C(=O)NCc3ccc(Cl)cc3)nn(C3CCNC3)c12 (stereo not shown) [Compound 6]", "pIC50": 7.72}

Below: the item to evaluate.
Query string: State pIC50 (varicella zoster virus DNA polymerase (Varicella-zoster virus)) of "NCCn1nc(C(=O)NCc2ccc(Cl)cc2)c2ccc(NCc3cnns3)c(Cl)c21" .
Result string: 8.54

FYI, the data here is from patent US20230066268A1.
